TARGET_SYSTEM: FGFR3 kinase (Homo sapiens)
Sequence (P22607 23-806): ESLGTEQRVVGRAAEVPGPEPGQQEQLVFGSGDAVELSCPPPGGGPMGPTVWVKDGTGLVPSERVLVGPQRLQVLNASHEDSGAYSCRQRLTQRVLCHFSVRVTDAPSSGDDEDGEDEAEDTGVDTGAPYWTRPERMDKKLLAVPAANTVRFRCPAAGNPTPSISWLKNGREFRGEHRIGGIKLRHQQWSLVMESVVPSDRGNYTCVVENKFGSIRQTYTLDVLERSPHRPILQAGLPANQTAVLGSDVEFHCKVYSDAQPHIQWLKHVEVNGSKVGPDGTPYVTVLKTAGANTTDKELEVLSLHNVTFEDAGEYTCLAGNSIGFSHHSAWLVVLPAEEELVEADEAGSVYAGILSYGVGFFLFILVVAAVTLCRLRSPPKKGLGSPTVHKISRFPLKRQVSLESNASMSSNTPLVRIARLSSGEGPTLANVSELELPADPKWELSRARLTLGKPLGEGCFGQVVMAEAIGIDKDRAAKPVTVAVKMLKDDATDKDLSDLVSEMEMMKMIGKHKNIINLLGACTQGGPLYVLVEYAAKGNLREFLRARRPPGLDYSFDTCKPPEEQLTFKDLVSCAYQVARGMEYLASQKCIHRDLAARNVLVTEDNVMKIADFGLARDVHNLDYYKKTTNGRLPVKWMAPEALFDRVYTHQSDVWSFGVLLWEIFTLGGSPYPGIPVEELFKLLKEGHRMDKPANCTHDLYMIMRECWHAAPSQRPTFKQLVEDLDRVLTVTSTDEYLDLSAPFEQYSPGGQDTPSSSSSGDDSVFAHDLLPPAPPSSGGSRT
PROTOCOL_DETAILS: Z-Lyte Kinase Assay of FGFR3
Assay type: biochemical
Source text: Example 25: Z-Lyte Kinase Assay of FGFR3 • 1. Materials and Reagents: • 2. Reaction Steps: Plate Map • 3. […] IC50 Value: determined with add-in software for Microsoft Excel, XLfit™ (version 2.0) from ID Business Solutions (Guildford, UK)
READOUT_KIND: IC50 (nM)

P = CCN1[C@H](C)CN(c2ccc(Nc3ncc(CCc4cc(C(=O)NC)cc(OC)c4Cl)cn3)cn2)C[C@@H]1C
Q = CNC(=O)c1cc(COc2cnc(Nc3ccc(=O)n(C4CCCC4)c3)nc2)c(F)c(OC)c1
R = CNC(=O)c1cc(COc2cnc(Nc3ccc(-n4cnnc4)cc3)nc2)c(F)c(OC)c1
S = CNC(=O)c1cc(CCc2cnc(Nc3ccc(N4C[C@@H](C)N(C)[C@@H](C)C4)nc3)nc2)c(Cl)c(OC)c1
Task item: Which order do these fall in by IC50? Give them lowest to highest. I would appreciate it if you listed the labels in the requested order.
Reply: S, P, R, Q
(S: 6 nM, P: 10 nM, R: 20 nM, Q: 29 nM)

a = CNC(=O)c1cc(COc2cnc(Nc3ccc(CCN(C)C)cc3)nc2)c(F)c(OC)c1
b = CNC(=O)c1cc(COc2cnc(Nc3ccc(S(C)(=O)=O)cc3)nc2)c(F)c(OC)c1
Task item: Select one: a or b . Criterion: greater recorded IC50. Your answer should be the label of the entry you select.
Reply: b

a = CNC(=O)c1cc(COc2cnc(Nc3ccc(N4CCOCC4)nc3)nc2)c(Cl)c(OC)c1
b = CNC(=O)c1cc(CCc2cnc(Nc3cnn([C@H]4CCOC4)c3)nc2)c(F)c(OC)c1
c = CCN1CCC(c2ccc(Nc3ncc(OCc4cc(C(=O)NC)cc(OC)c4F)cn3)cn2)CC1
d = CNC(=O)c1cc(COc2cnc(Nc3ccc(C4CCNCC4)nc3)nc2)c(F)c(OC)c1
e = CNC(=O)c1cc(COc2cnc(Nc3ccc(N4CCN(C)CC4)c(OC)c3)nc2)c(F)c(OC)c1
Task item: Rank the 5 compounds: largest IC50 first, smallest last. I would appreciate it if you listed the labels in the requested order.
Reply: c, a, b, d, e
(c: 39 nM, a: 23 nM, b: 13 nM, d: 9 nM, e: 5 nM)

1 = CNC(=O)c1cc(COc2cnc(Nc3cccc(S(C)(=O)=O)c3)nc2)c(F)c(OC)c1
2 = CNC(=O)c1cc(COc2cnc(Nc3ccc(-n4ccnn4)cc3)nc2)c(F)c(OC)c1
3 = CCN(CC)CCc1cccc(Nc2ncc(OCc3cc(C(=O)NC)cc(OC)c3F)cn2)c1
Task item: Rank the 3 compounds: largest IC50 first, smallest last. I would appreciate it if you listed the labels in the requested order.
Reply: 2, 1, 3
(2: 40 nM, 1: 25 nM, 3: 9 nM)

1 = CCCN1CC(c2ccc(Nc3ncc(OCc4cc(C(=O)NC)cc(OC)c4F)cn3)cc2)C1
2 = CNC(=O)c1cc(CCc2cnc(Nc3ccc(N4C[C@@H](C)N[C@@H](C)C4)c(OC)c3)nc2)c(F)c(OC)c1
Task item: Select one: 1 or 2 . Criterion: greater recorded IC50. Your answer should be the label of the entry you select.
Reply: 1

A = CCN1CCc2cc(Nc3ncc(OCc4cc(C(=O)NC)cc(OC)c4F)cn3)ccc21
B = CNC(=O)c1cc(COc2cnc(Nc3ccc(C4CCNCC4)cc3)nc2)c(F)c(OC)c1
Task item: Please let me know which one, A or B , has a lower measured IC50 value. Your answer should be the label of the entry you select.
Reply: B
